experiment description: Relative hydrolysis rate (RHR) was evaluated against RTEM enzyme
Format: ADME
quantity kind: RHR

Reference set, count: 6
Cn1nnnc1SCC1=C(C(=O)O)N2C(=O)C(NC(=O)C(C(=O)O)c3ccc(O)cc3)C2SC1 (configuration not stated) :: 0.96
CO/N=C(/C(=O)N[C@@H]1C(=O)N(S(=O)(=O)[O-])[C@@H]1C)c1csc(N)n1.[K+] :: 0.3
CC(C)O/N=C(\C(=O)N[C@H]1CN(S(=O)(=O)[O-])C1=O)c1csc(N)n1.[K+] :: 7
O=C(Cc1cccs1)N[C@@H]1C(=O)N2C(C(=O)[O-])=C(C[n+]3ccccc3)CS[C@H]12 :: 100
CO/N=C(\C(=O)N[C@@H]1C(=O)N2C(C(=O)O)=C(COC(C)=O)C[S@+]([O-])C12)c1csc(N)n1 (some centres not stated) :: 0
Cn1nnnc1SCC1=C(C(=O)O)N2C(=O)C(NC(=O)C(C(=O)O)c3ccc(O)cc3)C2OC1 (configuration not stated) :: 19

Ask: Could you please provide reported RHR for CO/N=C(/C(=O)N[C@H]1CN(S(=O)(=O)[O-])C1=O)c1csc(N)n1.[K+] ? Thanks!
Reply: 12
